Origin of measurements: patent US9914750B2

System: sheep red blood cells
Experiment: Hemagglutination assay
Type: cell-based
Conditions: PBS, absence of serum, 2 h
No end group written: not given here.
readout: hemagglutination (words)

- substance: "GQIINLKASLNLL-NH2 [GL13-D/N-NH2, GQIINLKASLNLL-(CONH2)]"
  target-or-test-system: "sheep red blood cells"
  observed-measurement: "caused hemagglutination"
- substance: "GQIINLKASLDLL [GL13-OH, GQIINLKASLDLL]"
  target-or-test-system: "sheep red blood cells"
  observed-measurement: "caused hemagglutination"
